Data provenance is PubChem BioAssay.

# Assay Procedure: P. aeruginosa biofilm formation inhibitors, primary screen, strain PAO1, LB-PBS medium, absorbance 600 nm (AID 1176); note: test concentration not given here
# Assay Conditions: P. aeruginosa PAO1 growth/biofilm, A600, 12 h; higher = more signal
Attribute: z-score
// return a plain number; no unit text

Dear colleague, I am looking for the recorded z-score of the following molecule: CC(C)Cc1ccc(CN2CC[C@@H](NS(=O)(=O)c3ccccc3)C2)cc1
-0.0126

And the next one, [N-]=[N+]=Nc1ccccc1C[C@]1(C(=O)NCCN2CCOCC2)N=C(c2ccc(OCCCO)cc2)O[C@H]1c1ccccc1 ?
0.565

And the next one, COc1ccc(C(=O)Nc2cccc(CN3C(=O)[C@@]4(O[C@@H](CCn5cc(CCO)nn5)[C@H]([Si](C)(C)c5ccc(OC)cc5)[C@H]4C)c4ccccc43)c2)cc1 ?
0.769

Others:
Dear colleague, I am looking for the recorded z-score of the following molecule: N#Cc1ccc(NN2C(C(O)c3cccs3)C=CC3C(=O)N(c4ccccc4)C(=O)C32)cc1 (stereo not drawn)
1.08

And the next one, [N-]=[N+]=NCc1ccccc1C[C@]1(C(=O)O)N=C(c2ccc(OCCCO)cc2)O[C@H]1c1ccccc1CN=[N+]=[N-] ?
0.563

###

# Target Under Test: Homeobox protein Hox-A13 (Mus musculus)
# Assay Procedure: inhibitors of HoxA13-DNA binding, primary screen, biochemical, fluorescence polarization, labeled oligonucleotide (AID 1185)
# Assay Conditions: 15 min, higher = more signal, called active from +8 up or from −8 down
Is z-score at least -3? Then rule met. If not, rule not met.

Example results:
Decide: z-score of N#Cc1ccc(NN2C(C(O)c3cccs3)C=CC3C(=O)N(c4ccccc4)C(=O)C32)cc1 (configuration not stated) >= -3?
rule met

And the next one, O=C1O[C@@H](c2ccccc2)[C@@H](c2ccccc2)N2[C@@H](c3ccc(O)cc3)[C@]3(C(=O)Nc4ccc(C#CC5=CCCCC5)cc43)[C@@H](C(=O)O)[C@H]12 ?
rule not met

And the next one, CCCCCN1CC=CC23O[C@@H]4/C=C\CCCOC(=O)C4[C@H]2C(=O)N(CCCCCCO)[C@@H]3C1=O (some centres not stated) ?
rule not met

And the next one, Cc1cc(C)c(C(O)C2C=CC3C(=O)N(c4ccccc4)C(=O)C3N2Nc2ccc(C#N)cc2)c(C)c1 (configuration not stated) ?
rule met

And the next one, C[C@]1(C(=O)NCc2ccccc2)c2ccccc2C(=O)N(Cc2cc(F)cc(C(F)(F)F)c2)[C@H]1c1ccc(CO)cc1 ?
rule not met

Now look at this one.
Decide: z-score of COC(=O)C[C@@H]1C[C@H](C)[C@]2(O1)C(=O)N(Cc1ccccc1)c1ccc(NC(C)=O)cc12 >= -3?
rule not met

###

# Assay Procedure: mitochondrial membrane potential change in A549 cells, profiling panel, cell-based, JC-1 fluorescence, basal, 24 h, 100 nL (AID 1138);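 note: A549 lung adenocarcinoma cells under basal conditions with no added stimulus; test concentration not given here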
# Assay Conditions: higher = more signal
Readout Label: z-score

Dear colleague, I am looking for the recorded z-score of the following molecule: CC(C)C(=C=CC[C@H](O)c1ccccc1OCCO)C[C@H](O)c1ccccn1
0.453

And the next one, CCOc1cc(C(O)C2C=CC3C(=O)N(c4ccccc4)C(=O)C3N2Nc2ccc([N+](=O)[O-])cc2)ccc1O (stereo unspecified) ?
-1.52

And the next one, COC(=O)[C@@]1(Cc2ccccc2)[C@H]2c3cc(C(=O)N(C)C)n(Cc4cc(C)n(C)n4)c3C[C@H]2CN1C(=O)c1ccccc1 ?
-0.127

And the next one, COCCOC(=O)N1C(=O)[C@@]2(c3cc(C#CCNC(N)=O)ccc31)[C@H](c1ccccc1OCCO)N1[C@H](c3ccccc3)[C@H](c3ccccc3)OC(=O)[C@H]1[C@@H]2C(N)=O ?
-1.24

And the next one, CN(C)CCCNC(=O)[C@@]1(Cc2ccccc2I)c2ccccc2C(=O)N(Cc2ccccc2C(F)(F)F)[C@H]1c1ccc(CO)cc1 ?
0.117

And the next one, COCCOC(=O)N1C(=O)[C@@]2(c3cc(C#CCC(C(=O)OC)C(=O)OC)ccc31)[C@H](C(=O)N1CCCCCCC1)[C@H]1C(=O)O[C@H](c3ccccc3)[C@H](c3ccccc3)N1[C@@H]2c1ccc(OCCO)cc1 ?
-1.49

And the next one, Cc1ccc(S[C@]2(C(=O)NCC(C)C)CC(=O)N(Cc3ccccc3Cl)[C@@H]2c2ccc(CO)cc2)cc1 ?
1.37

And the next one, COCCOC(=O)N1C(=O)[C@@]2(c3cc(C#CC4=CCCCC4)ccc31)[C@H](C(=O)NC[C@H](O)c1ccccc1)[C@H]1C(=O)O[C@H](c3ccccc3)[C@H](c3ccccc3)N1[C@@H]2c1ccc(O)cc1 ?
-1.23

And the next one, O=C1OCCC/C=C\[C@H]2OC34C=CCN(Cn5nnc6ccccc65)C(=O)[C@H]3N(CCCCCO)C(=O)[C@@H]4C12 (stereo partly specified) ?
0.248

And the next one, CC1=C2[C@@H](CCc3ccccc3)OB(O)C[C@@H]2n2c(=O)n(-c3ccccc3)c(=O)n2C1 ?
0.235

And the next one, COC(=O)C(CC#Cc1ccc2c(c1)[C@]1(C(=O)N2)[C@H](C(=O)NC[C@H](O)c2ccccc2)[C@H]2C(=O)O[C@H](c3ccccc3)[C@H](c3ccccc3)N2[C@@H]1c1ccc(OCCO)cc1)C(=O)OC ?
-1.32

And the next one, C=CCNC(=O)[C@@H]1[C@H]2C(=O)O[C@H](c3ccccc3)[C@H](c3ccccc3)N2[C@H](c2ccc(OCCO)cc2)[C@@]12C(=O)Nc1ccccc12 ?
0.253

And the next one, CCOC(=O)C[C@H]1[C@H](OC(=O)c2ccccc2-c2ccccc2)[C@@H](NC(=O)Cc2ccc(OC)cc2)c2cc(OCCCO)ccc2N1C(=O)c1ccccc1 ?
0.362

And the next one, C=CC(=C)C1=CCO[C@@H]1[C@H]1CCCN1S(=O)(=O)c1ccccc1[N+](=O)[O-] ?
-0.295

And the next one, CCOC(=O)C1=C[C@@H](CC)N(S(=O)(=O)c2ccc(C)cc2)[C@H]1c1ccccc1 ?
2.94

And the next one, CCCNC(=O)[C@@H]1c2ccccc2C(=O)N(Cc2ccccc2)[C@H]1c1ccc(CO)cc1 ?
-0.109

And the next one, CC(=O)NCCCC[C@@H]1NC(=O)[C@@H]2C[C@H](C(=O)NCCCCCCNC(=O)CS)[C@H](c3ccc(O)cc3)N2C1=O ?
-0.177

And the next one, COC(=O)[C@@]1(Cc2ccc(OC)cc2)[C@H]2c3cc(C(=O)N(C)C)n(Cc4c(OC)[nH]cc(C)c4=O)c3C[C@H]2CN1C(=O)c1ccccc1 ?
0.539

And the next one, COCCOC(=O)N1C(=O)[C@@]2(c3cc(C#CCCO)ccc31)[C@H](c1ccc(O)cc1)N1[C@H](c3ccccc3)[C@H](c3ccccc3)OC(=O)[C@H]1[C@@H]2C(N)=O ?
-0.444

###

Attribute: composite z-score
# Assay Procedure: compound binding in COS7 lysate, probe aLAP1, primary screen, cell lysate, small-molecule microarray (AID 1124);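 note: lysate comes from COS7 cells expressing LAP1 and is applied at 0.3 µg/mL; score merges spot fluorescence near 667 nm with signal-to-noise over triplicate slides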
# Assay Conditions: probe aLAP1, fluorescence, higher = more signal
// return a plain number; no unit text

Dear colleague, I am looking for the recorded composite z-score of the following compound: COC(=O)[C@@]1(Cc2ccccc2)[C@H]2c3cc(C(=O)N(C)C)n(Cc4cc(C)n(C)n4)c3C[C@H]2CN1C(=O)c1ccccc1
0.993

And the next one, COCCOC(=O)N1C(=O)[C@@]2(c3cc(C#CCC(C(=O)OC)C(=O)OC)ccc31)[C@H](c1ccccc1OCCO)N1[C@H](c3ccccc3)[C@H](c3ccccc3)OC(=O)[C@H]1[C@@H]2C(N)=O ?
1.5

And the next one, O=C1C2C=CC(C(O)c3ccc(B(O)O)cc3)N(Nc3ccccc3)C2C(=O)N1c1ccccc1 (configuration not stated) ?
-0.0389

And the next one, COc1ccc(C#Cc2ccc3c(c2)[C@]2(C(=O)N3)[C@H](c3ccc(O)cc3)N3[C@H](c4ccccc4)[C@H](c4ccccc4)OC(=O)[C@H]3[C@@H]2C(=O)N2CCCCCCC2)cc1 ?
0.998

Others:
Dear colleague, I am looking for the recorded composite z-score of the following compound: O=C(CS)NCCCCCCNC(=O)[C@@H]1C[C@@H]2C(=O)N3CCC[C@H]3C(=O)N2[C@@H]1c1ccc(O)cc1
0.827

And the next one, C=C(C(=O)CC[C@H](OC(C)=O)c1ccc(OCCO)cc1)C(C)C ?
1.15

And the next one, C=CCC(OC(C)=O)[C@@H]1[C@@H](N(Cc2ccc(-c3ccccc3)cc2)C(=O)Cc2ccc(F)cc2)c2cc(OCCCO)ccc2N1C(=O)c1ccc2ccccc2n1 (some centres not stated) ?
0.0508

###

# System: PRMT1 (protein arginine N-methyltransferase 1)
# Assay Procedure: PRMT1 binders on small-molecule microarrays, primary screen, biochemical, small-molecule microarray, 635 nm fluorescence (AID 1088);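 note: binding of Prmt1 protein to compounds spotted on small-molecule microarray slides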
# Assay Conditions: small-molecule microarray binding, higher = more signal
Readout Label: composite z-score
// return a plain number; no unit text

Solved cases below.
Dear colleague, I am looking for the recorded composite z-score of the following compound: [N-]=[N+]=NCc1ccccc1C[C@]1(C(=O)NCCN2CCOCC2)N=C(c2ccc(OCCCO)cc2)O[C@H]1c1ccccc1N=[N+]=[N-]
1.56

And the next one, CC(C)=CCCC(C)=CC(O)C1C=CC2C(=O)N(c3ccccc3)C(=O)C2N1Nc1ccccc1 (stereo not drawn) ?
0.967

And the next one, COc1ccc(CCNC(=O)[C@@H]2c3ccccc3C(=O)N(Cc3ccc(OC(F)(F)F)cc3)[C@H]2c2ccc(CO)cc2)cc1 ?
1.55

And the next one, CC(=O)NCCCC[C@@H]1NC(=O)[C@@H]2C[C@H](C(=O)NCCCCN(C)C)[C@H](c3ccc(O)cc3)N2C1=O ?
-0.0942

And the next one, COc1ccc(C(O)C2C=CC3C(=O)N(C)C(=O)C3N2Nc2ccccc2)cc1OCc1ccccc1 (stereo not drawn) ?
1.49

And the next one, COCC(=C=CC[C@@H](O)c1ccc(CO)o1)CCO ?
0.737

And the next one, CCCN1C(=O)[C@@]2(CCC(=O)OC(C)(C)C)N=C(c3ccc(OCCCO)cc3)O[C@H]2c2ccccc21 ?
1.56

And the next one, COC(=O)[C@@]1(Cc2ccccc2)[C@H]2c3cc(C(=O)N4CCCC4)n(C)c3C[C@H]2CN1C(=O)c1ccccc1 ?
0.0683

And the next one, Cc1ccc(S[C@]2(C(=O)NCc3ccccc3)CC(=O)N(Cc3ccccc3Cl)[C@@H]2c2ccc(CO)cc2I)cc1 ?
1.08

And the next one, Cc1ccc(S[C@]2(C(=O)NC3CC3)CC(=O)N(Cc3ccccc3)[C@@H]2c2ccc(CO)cc2)cc1 ?
0.0655

Could you now look at the following compound, please?
Dear colleague, I am looking for the recorded composite z-score of the following compound: N#Cc1ccc(NN2C(C(O)c3ccc([N+](=O)[O-])cc3)C=CC3C(=O)N(c4ccccc4)C(=O)C32)cc1 (stereo not drawn)
0.698
